These data points were gathered from paper PMC4629825.

- Test system: panel of five solid tumor and nine leukemia cell lines
- experiment notes: MTT growth inhibition, whole panel of tumor cell lines
- Format: cell-based, human
- particulars: tumor cell line panel, MTT
readout type: antiproliferative activity / GI50 in words

Worked examples, 4 compounds total:
O=C(O)Cn1ccc2c3c(=O)cc(-c4ccccc4)[nH]c3ccc21 [Compound 16]; completely inactive
CCn1ccc2c3c(OC(=O)OCc4ccccc4)cc(-c4ccccc4)nc3ccc21 [Compound 12]; subnanomolar
O=C(C1CC1)n1ccc2c3c(=O)cc(-c4ccccc4)[nH]c3ccc21 [Compound 5f]; subnanomolar
CCC(=O)n1ccc2c3c(=O)cc(-c4ccccc4)[nH]c3ccc21 [Compound 5e]; subnanomolar

Now take the following compound into account.
Q: # input compound: O=C(O)CCn1ccc2c3c(=O)cc(-c4ccccc4)[nH]c3ccc21 [Compound 15] ; wanted: its antiproliferative activity / GI50 in words
A: completely inactive
